This collection of values is drawn from paper PMC9352680.

Molecular target: T1, PUF4 RNA-binding domain (Saccharomyces cerevisiae, UniProt P25339 537-888)
T1 sequence: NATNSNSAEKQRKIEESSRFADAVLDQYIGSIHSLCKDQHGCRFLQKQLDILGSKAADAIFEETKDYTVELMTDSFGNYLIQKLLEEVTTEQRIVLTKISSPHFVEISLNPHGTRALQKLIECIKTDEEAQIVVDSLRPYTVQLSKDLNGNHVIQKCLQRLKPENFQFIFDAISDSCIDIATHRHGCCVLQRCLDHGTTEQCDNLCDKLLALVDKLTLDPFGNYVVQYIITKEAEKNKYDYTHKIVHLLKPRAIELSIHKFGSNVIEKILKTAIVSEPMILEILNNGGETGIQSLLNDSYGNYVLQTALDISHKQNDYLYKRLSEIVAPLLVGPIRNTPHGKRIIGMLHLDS
Test: Mg; RNA-MaP; 20 mM Na-HEPES pH 7.4, 30 mM KOAc, 0.75 mM MgCl2, 0.1% Tween-20, 5% glycerol, 0.1 mg/mL BSA, 2 mM DTT; 25 C; 0.0125-409.6 nM protein
Conditions: tags: N-His6-TEV cleaved; C-SNAP kept, Cy3B-labelled; label: tethered on chip by stalled RNA polymerase
Field: Kd. Provide a value for each of the binders that follow.

Some entries whose results are on file:
binder	Kd
UCUCUUCUUAUAUAUUAUCUCUCUU (ssRNA) [Id_ii_S1_P4E.3_K4.2_C4.2_H4.2_A4.1_F4.1_T4.2_[G10T]_[T11C]]	13.9 nM
Ib_S2_P5E.1_K5.1_C5.1_H5.1_[T3C]_A5.1_[T5G]_F5.1_T5.1 (ssRNA) RNA: UUUGAUUAAUAUGAUAUCGUUCUUUCUUGCAGUAUUAUUCUUUCUCGAUAUCAUAUUAAUCUUU	909 nM

stdin: Identify the reported Kd for the following entry. Id_i_S2_P3E.6_K3.2_C3.3_[T-3C]_[C-2A]_[T-1C]_H3.2_A3.1_F3.1_T3.2 (ssRNA) RNA: UUUGAUUAAUAUGAUAUCGUUCUUUCUCACUAUAUAUAUAUUCUUUCUCGAUAUCAUAUUAAUCUUU
stdout: 68.5 nM
